- Test system: Jeko-1
- measurement-notes: In vitro tumor cell proliferation (CellTiter-Glo), Jeko-1
- Assay type: cell-based
- cond: Homo sapiens, JeKo-1, 72 h; read-out: Growth IC50
parameter: IC50

C=CC(=O)NN1CCCC(n2nc(-c3ccc(Oc4ccccc4)cc3)c3c(N)ncnc32)C1 (stereo not shown) has a reported IC50 of > 10 µM

---

- measurement-notes: Human liver microsome stability test
- Assay type: in vitro ADME
- cond: human, liver microsomes, pH 7.4; HLM 0.5; scaled from CLint(mic)
Some compounds, each annotated with its measured CLint scaled at 1 µM.
Enter your answer as a number in mL/min/kg; do not include the unit.

# count of solved cases: 2
{"columns": ["compound", "unit-symbol", "CLint scaled at 1 µM"],
 "data": [
  ["C=CC(=O)N(C)N1CCCC(n2nc(-c3ccc(Oc4ccccc4)cc3)c3c(N)ncnc32)C1 (stereo not drawn)", "mL/min/kg", 336],
  ["C=CC(=O)NN1CCCC(n2nc(-c3ccc(Oc4ccccc4)cc3)c3c(N)ncnc32)C1 (stereo not drawn)", "mL/min/kg", 292]
]}

C=CC(=O)N1CCCC(n2nc(/C=C/c3ccccn3)c3c(N)ncnc32)C1 (stereo not drawn) has a reported CLint scaled at 1 µM of 60.8

---

- measurement-notes: Pharmacokinetic study, single intravenous and oral dose, SD rats
- Format: in vivo
- cond: male, blood, Rat, PO, 10 mg/kg, read-out: T½ (converted)
parameter: half-life (h)
Enter your answer as a number in h; do not include the unit.

C=CC(=O)NN1CCCC(n2nc(-c3ccc(Oc4ccccc4)cc3)c3c(N)ncnc32)C1 (stereo not shown) [Embodiment 6] has a reported half-life of 1.89

---

- measurement-notes: Pharmacokinetic study, single intravenous and oral dose, beagle dogs
- Type: in vivo
- cond: male, dog, blood, oral, 30 mg/kg
parameter: bioavailability (%)
Enter your answer as a number in %; do not include the unit.

C=CC(=O)NN1CCCC(n2nc(-c3ccc(Oc4ccccc4)cc3)c3c(N)ncnc32)C1 (stereo not shown) has a reported bioavailability of 54.6

---

- measurement-notes: Pharmacokinetic study, single intravenous and oral dose, beagle dogs
- Format: in vivo
- cond: male, blood, Dog, PO, 30 mg/kg
parameter: Cmax (ng/mL)
Enter your answer as a number in ng/mL; do not include the unit.

C=CC(=O)NN1CCCC(n2nc(-c3ccc(Oc4ccccc4)cc3)c3c(N)ncnc32)C1 (stereo not shown) has a reported Cmax of 3830

---

- measurement-notes: Pharmacokinetic study, single intravenous and oral dose, beagle dogs
- Format: in vivo
- cond: male, blood, Dog, IV, 2 mg/kg
- Description: Biological Embodiment 7: Pharmacokinetic Study of Performing Respective Single Intravenous and Oral Dose Delivery with Test Samples on SD Rats and Beagle Dogs […]
parameter: Tmax (min)
Enter your answer as a number in min; do not include the unit.

C=CC(=O)NN1CCCC(n2nc(-c3ccc(Oc4ccccc4)cc3)c3c(N)ncnc32)C1 (stereo not shown) has a reported Tmax of 4.98

---

- System: DB
- measurement-notes: In vitro tumor cell proliferation (CellTiter-Glo), DB
- Assay type: cell-based
- cond: Homo sapiens, 72 h, read-out: Growth IC50
parameter: IC50

C=CC(=O)NN1CCCC(n2nc(-c3ccc(Oc4ccccc4)cc3)c3c(N)ncnc32)C1 (stereo not shown) has a reported IC50 of > 10 µM

---

Some molecules, each annotated with its measured half-life at 1 µM.
- measurement-notes: Human liver microsome stability test
- Assay type: in vitro ADME
- cond: human, liver microsomes, pH 7.4; HLM 0.5 (0.5 mg protein/mL)
Enter your answer as a number in min; do not include the unit.

C=CC(=O)N(C)N1CCCC(n2nc(-c3ccc(Oc4ccccc4)cc3)c3c(N)ncnc32)C1 (stereo not drawn) [Embodiment 8] has a reported half-life at 1 µM of 3.7

C=CC(=O)NN1CCCC(n2nc(-c3ccc(Oc4ccccc4)cc3)c3c(N)ncnc32)C1 (stereo not drawn) [Embodiment 6] has a reported half-life at 1 µM of 4.3

C=CC(=O)N1CCCC(n2nc(/C=C/c3ccccn3)c3c(N)ncnc32)C1 (stereo not drawn) [Embodiment 13] has a reported half-life at 1 µM of 20.5
